Data provenance is PubChem BioAssay (NCI).

- Test system: U251 CNS
- Test: NCI-60 one-dose screen, 48 h
- Condition: 10 µM unless noted
- Protocol: Growth inhibition of the U251 human tumor cell line is measured as a screen for anti-cancer activity. Cells are grown in 96 well plates and exposed to the test compound for 48 hours. Compounds are tested at a single concentration, which is 10^-5 M for most compounds. The reported endpoint is percent growth (GI% or GIPRCNT), where numbers from 0 - 100% represent growth inhibition, and numbers from -100% - 0 represent cell death. For example, a value of 40 represents 60% growth inhibition. […]
This is part of a sample that, as a whole, favours compounds with a hit. Of some 83,000 tested, about 20% had one in any assay. Active and inactive are the calls of the source. How the source made its calls: active means growth percent below 10; inactive means the rest.
Would you mind answering with one of these outcomes? TRUE (active), FALSE (inactive)

CCCCN(CCCC)CCC(=O)c1ccc(OC)c2ccccc12 = FALSE
C=C(C)[C@@H]1CC[C@]2(C)[C@H](CC=C3[C@@H]4C[C@](C)(C(=O)N5CCN(C)CC5)CC[C@]4(C)CC[C@]32C)[C@@]1(C)CCC#N = FALSE
CCOCC(O)(c1ccc(Cl)cc1)c1ccc(Cl)cc1 = FALSE
COc1ccc(C(=O)/C=C/c2cn(-c3ccccc3)nc2-c2cccc(Nc3ccnc4cc(Cl)ccc34)c2)cc1 = FALSE
O=C1OCC2=C1C(c1cccc(Br)c1)c1cc3c(cc1N2CCO)OCCO3 (stereo not given) = TRUE
Nc1nc2ccc([C@@H]3Nc4ccc5[nH]ncc5c4[C@H]4[C@H]5CCC(C5)[C@H]43)cc2s1 = FALSE
SCc1ccc(CS)cc1 = FALSE
C[C@]12CCc3nc(Nc4ccc(O)cc4)sc3C1=CC[C@@H]1[C@@H]2CC[C@]2(C)/C(=N/NC(N)=S)CC[C@@H]12 = TRUE
CC(COC(=O)c1ccccc1)N1CC2CCC(C1)O2 (stereo not given) = FALSE
Cc1cc(O)ccc1C1=NN(c2ccc(S(N)(=O)=O)cc2)C(=O)CC1 = FALSE

How was COC(=O)c1ccc(NC(N)=NCCC(C)(C)c2ccc(C(F)(F)F)cc2)nc1 classified in this test? FALSE
